Data provenance is paper PMC9782245.

target: CDK2/E (Homo sapiens); experiment: Kinase inhibition assay CDK2/E; type: biochemical; settings: at least duplicate experiments; read-out: IC50 CDK2/E
pIC50: −log10 of the molar value.
Quantity name: pIC50

INSERT INTO measurements (molecule, recorded_value) VALUES
  ('FC(F)(F)c1nc2cnc(Nc3ccc(N4CCNCC4)cc3)nc2n1C1CCCCCC1 [12d]', 6.82),
  ('Cc1ccccc1-n1c(=O)n(C)c2cnc(Nc3ccc(N4CCNCC4)cc3)nc21 [14n]', 6.27),
  ('FC(F)(F)c1nc2cnc(Nc3ccc(N4CCNCC4)cc3)nc2n1C1CCCCC1 [12b]', 6.64);

a = CC1CCC(n2c(C(F)(F)F)nc3cnc(Nc4ccc(N5CCNCC5)cc4)nc32)CC1 (stereo not shown) [12c]
b = CC1CCC(n2c(=O)[nH]c3cnc(Nc4ccc(N5CCNCC5)cc4)nc32)CC1 (stereo not shown) [13c]
c = COc1ccccc1-n1c(=O)n(C)c2cnc(Nc3ccc(N4CCNCC4)cc3)nc21 [14p]
d = CC(C)n1c(=O)n(C2CCCCC2)c2nc(Nc3ccc(N4CCNCC4)cc3)ncc21 [15b]
e = Cn1c(=O)n(C2CCCCCCC2)c2nc(Nc3ccc(N4CCNCC4)cc3)ncc21 [14i]
In: Let's sort these by pIC50, smallest first. Go ahead? Write the labels, ordered according to the request.
Out: d, b, c, a, e

I = FC(F)(F)c1nc2cnc(Nc3ccc(N4CCNCC4)cc3)nc2n1C1CCCC1 [12a]
II = Cn1c(=O)n(C2CCC2)c2nc(Nc3ccc(N4CCNCC4)cc3)ncc21 [14c]
In: Lab notebook, comparison: I versus II , higher pIC50 goes to which? Refer to your chosen entry by its label in the reply.
Out: I
(I: 5.79, II: 5.41)

1 = Cn1c(=O)n([C@H]2CC[C@H](C)CC2)c2nc(Nc3ccc(N4CCNCC4)cc3)ncc21 [14g]
2 = CC(C)n1c(=O)n(C2CCCC2)c2nc(Nc3ccc(N4CCNCC4)cc3)ncc21 [15a]
In: Lab notebook, comparison: 1 versus 2 , higher pIC50 goes to which? Refer to your chosen entry by its label in the reply.
Out: 1
